Data provenance is patent US20260184663A1.

inhibition at 10 µM reference
System: B16F10 (malignant melanoma)
Assay: Antiproliferative activity (CCK-8 cell viability), B16F10
Type: cell-based
Conditions: Mus musculus, B16-F10, Compound concentration: 10 μM, 72 h, read-out: Antiproliferative activity in cancerous cells, B16F10 (inhibition of cell growth)

Any idea what its inhibition at 10 µM is? The compound is "CC1=C(CC(=O)O)c2cc(F)ccc2/C1=C\c1ccc(Sc2ccc(F)cc2)cc1"
≥ 50%

More entries:
Any idea what its inhibition at 10 µM is? The compound is "CC1=C(CC(=O)O)c2cc(F)ccc2/C1=C\c1ccc(Oc2ccc(F)c(Cl)c2)cc1"
≥ 50%

Any idea what its inhibition at 10 µM is? The compound is "CC1=C(CC(=O)O)c2cc(F)ccc2/C1=C\c1ccc(C(=O)c2cc3ccccc3o2)cc1"
≥ 50%

Any idea what its inhibition at 10 µM is? The compound is "CC1=C(CC(=O)O)c2cc(Cl)ccc2/C1=C\c1ccc(COc2ccc(F)cc2)cc1"
30 to 50%

Any idea what its inhibition at 10 µM is? The compound is "COc1ccc(CCCc2ccc(/C=C3/C(C)=C(CC(=O)O)c4cc(F)ccc43)cc2)cc1"
≥ 50%

Any idea what its inhibition at 10 µM is? The compound is "CC1=C(CC(=O)O)c2cc(F)ccc2/C1=C\c1ccc(CCCc2ccccc2)cc1"
< 30%

Any idea what its inhibition at 10 µM is? The compound is "CC1=C(CC(=O)O)c2cc(F)ccc2/C1=C\c1cccc(OC2CCC(F)(F)CC2)c1"
≥ 50%

Any idea what its inhibition at 10 µM is? The compound is "CC1=C(CC(=O)O)c2cc(F)ccc2/C1=C/c1cccc(Oc2cccc(C(F)(F)F)c2)c1"
< 30%

Any idea what its inhibition at 10 µM is? The compound is "COc1ccc(Oc2ccc(/C=C3/C(C)=C(CC(=O)O)c4cc(F)ccc43)cc2)cc1Cl"
30 to 50%

Any idea what its inhibition at 10 µM is? The compound is "CC1=C(CC(=O)O)c2c(F)cc(F)cc2/C1=C\c1ccc(C(C)C)cc1"
≥ 50%

Any idea what its inhibition at 10 µM is? The compound is "CC1=C(CC(=O)O)c2cc(F)ccc2/C1=C\c1ccc(Oc2ccc(F)cc2Cl)cc1"
< 30%

Any idea what its inhibition at 10 µM is? The compound is "CC1=C(CC(=O)O)c2cc(F)ccc2/C1=C\c1ccc(C(=O)c2cc3ccccc3s2)cc1"
≥ 50%

Any idea what its inhibition at 10 µM is? The compound is "COc1ccc2c(c1)/C(=C\c1cccc(COc3ccccc3)c1)C(C)=C2CC(=O)O"
≥ 50%

----------
System: A549 (lung adenocarcinoma)
Assay: Antiproliferative activity (CCK-8 cell viability), A549
Format: cell-based
Conditions: Homo sapiens, Compound concentration: 10 μM, 72 h, read-out: Antiproliferative activity in cancerous cells, A549 (inhibition of cell growth)
measured-quantity: inhibition at 10 µM

Any idea what its inhibition at 10 µM is? The compound is "CC1=C(CC(=O)O)c2c(F)cc(F)cc2/C1=C\c1ccc(C(C)C)cc1"
30 to 50%

Any idea what its inhibition at 10 µM is? The compound is CC1=C(CC(=O)O)c2cc(F)ccc2/C1=C\c1ccc(CCOC2CCCCO2)cc1 (stereo not drawn)
≥ 50%

Any idea what its inhibition at 10 µM is? The compound is "CC1=C(CC(=O)O)c2cc(Br)ccc2/C1=C/c1ccc(Oc2ccc(F)cc2)cc1"
≥ 50%

Any idea what its inhibition at 10 µM is? The compound is "CC1=C(CC(=O)O)c2cc(C)ccc2/C1=C\c1ccc(COCc2ccc(Cl)cc2)cc1"
≥ 50%

Any idea what its inhibition at 10 µM is? The compound is "CC1=C(CC(=O)O)c2cc(Cl)ccc2/C1=C\c1ccc(COc2ccc(C(F)(F)F)cc2)cc1"
30 to 50%

More entries:
Any idea what its inhibition at 10 µM is? The compound is "CC1=C(CC(=O)O)c2c(F)ccc(F)c2/C1=C\c1ccc(C(C)C)cc1"
30 to 50%

Any idea what its inhibition at 10 µM is? The compound is "CC1=C(CC(=O)O)c2cc(F)ccc2/C1=C/c1ccc(CO)cc1"
≥ 50%

Any idea what its inhibition at 10 µM is? The compound is "O=C(O)CC1=C(Cc2ccc(Oc3ccc(F)cc3)cc2)/C(=C/c2ccc(C(F)(F)F)cc2)c2ccc(F)cc21"
≥ 50%

Any idea what its inhibition at 10 µM is? The compound is "CC(=O)CC(=O)N1CCC(Oc2ccc(/C=C3/C(C)=C(CC(=O)O)c4cc(F)ccc43)cc2)CC1"
< 30%
